Recorded remaining at 40 min, one value per entry.
assay: Metabolic stability of the compound in rat plasma after 40 mins; assay type: ADME, cell-free; conditions: read-out: Stability
State the answer as a number, implicitly in %.

Name the recorded remaining at 40 min for "CC1=C(C2=C(C)C(=O)c3c(cc(O)c(O)c3C(C)C)C2=O)C(=O)c2cc(O)c(O)c(C(C)C)c2C1=O" . 77

And for "CC1=C(C2=C(C)C(=O)c3c(cc(O)c(O)c3Cc3ccccc3)C2=O)C(=O)c2cc(O)c(O)c(Cc3ccccc3)c2C1=O" ? 95

What do you get for "CC1=C(C2=C(C)C(=O)c3c(cc(O)c(O)c3CCc3ccccc3)C2=O)C(=O)c2cc(O)c(O)c(CCc3ccccc3)c2C1=O" ? 81

Do the same for CC1=C(C2=C(C)C(=O)c3c(cc(O)c(O)c3C(=O)NCC(C)c3ccccc3)C2=O)C(=O)c2cc(O)c(O)c(C(=O)NCC(C)c3ccccc3)c2C1=O (stereo not drawn) please 91

Subsequent entry: "CC1=C(C2=C(C)C(=O)c3c(cc(O)c(O)c3CCc3ccc(C)cc3)C2=O)C(=O)c2cc(O)c(O)c(CCc3ccc(C)cc3)c2C1=O" 86

Now consider "CC1=C(C2=C(C)C(=O)c3c(cc(O)c(O)c3CCCc3ccccc3)C2=O)C(=O)c2cc(O)c(O)c(CCCc3ccccc3)c2C1=O" and answer again. 87

Proceed to "CC1=C(C2=C(C)C(=O)c3c(cc(O)c(O)c3CC(C)C)C2=O)C(=O)c2cc(O)c(O)c(CC(C)C)c2C1=O" 98

And then "CC1=C(C2=C(C)C(=O)c3c(cc(O)c(O)c3CCC3CCCCC3)C2=O)C(=O)c2cc(O)c(O)c(CCC3CCCCC3)c2C1=O" , what is it? 74

###

test system: Mus musculus; assay: Toxicity in human Bcl2 expressing B6 transgenic BALB/c mouse assessed as weight loss up to 120 umol/kg, ip administered as single dose after 24 hrs; type: organism-based; conditions: in vivo
ASSAY ENDPOINT: Activity (%)
Report the figure in % without appending any unit label.

What Activity value was documented for this molecule, "CC1=C(C2=C(C)C(=O)c3c(cc(O)c(O)c3CCc3ccc(C)cc3)C2=O)C(=O)c2cc(O)c(O)c(CCc3ccc(C)cc3)c2C1=O" ? 5

###

Entries and their pKi values follow.
biological target: Bcl-2-like protein 1 (Homo sapiens, UniProt Q07817)
Sequence (Q07817 whole entry): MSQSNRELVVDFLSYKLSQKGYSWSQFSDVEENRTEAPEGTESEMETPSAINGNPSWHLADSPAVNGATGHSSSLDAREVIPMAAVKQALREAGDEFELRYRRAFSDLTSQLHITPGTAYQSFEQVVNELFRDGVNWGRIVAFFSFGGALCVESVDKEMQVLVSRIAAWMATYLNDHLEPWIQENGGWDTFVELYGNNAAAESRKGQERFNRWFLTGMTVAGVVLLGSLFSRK
Just so you know, pKi here is -log10 of the concentration in molar units; reply with that number alone.

Consider the reported pKi for these compounds:
CC1=C(C2=C(C)C(=O)c3c(cc(O)c(O)c3C(C)C)C2=O)C(=O)c2cc(O)c(O)c(C(C)C)c2C1=O; 6.38
CC1=C(C2=C(C)C(=O)c3c(cc(O)c(O)c3C(=O)Cc3ccccc3)C2=O)C(=O)c2cc(O)c(O)c(C(=O)Cc3ccccc3)c2C1=O; 6.62
CC1=C(C2=C(C)C(=O)c3c(cc(O)c(O)c3C(=O)NCC(C)c3ccccc3)C2=O)C(=O)c2cc(O)c(O)c(C(=O)NCC(C)c3ccccc3)c2C1=O (configuration not stated); 6.68
CCc1ccc(CCNC(=O)c2c(O)c(O)cc3c2C(=O)C(C)=C(C2=C(C)C(=O)c4c(cc(O)c(O)c4C(=O)NCCc4ccc(CC)cc4)C2=O)C3=O)cc1; 6.80
CC1=C(C2=C(C)C(=O)c3c(cc(O)c(O)c3Cc3ccc(Cl)cc3)C2=O)C(=O)c2cc(O)c(O)c(Cc3ccc(Cl)cc3)c2C1=O; 6.96
CC1=C(C2=C(C)C(=O)c3c(cc(O)c(O)c3CCc3ccc(C)cc3)C2=O)C(=O)c2cc(O)c(O)c(CCc3ccc(C)cc3)c2C1=O; 5.68
CC1=C(C2=C(C)C(=O)c3c(cc(O)c(O)c3CCc3ccccc3)C2=O)C(=O)c2cc(O)c(O)c(CCc3ccccc3)c2C1=O; 5.92
CC1=C(C2=C(C)C(=O)c3c(cc(O)c(O)c3CCCc3ccccc3)C2=O)C(=O)c2cc(O)c(O)c(CCCc3ccccc3)c2C1=O; 6.02
CC1=C(C2=C(C)C(=O)c3c(cc(O)c(O)c3CCC3CCCCC3)C2=O)C(=O)c2cc(O)c(O)c(CCC3CCCCC3)c2C1=O; 5.08
CC1=C(C2=C(C)C(=O)c3c(cc(O)c(O)c3Cc3ccccc3)C2=O)C(=O)c2cc(O)c(O)c(Cc3ccccc3)c2C1=O; 6.64

Lab note: need pKi for "CC1=C(C2=C(C)C(=O)c3c(cc(O)c(O)c3CC3CCCC3)C2=O)C(=O)c2cc(O)c(O)c(CC3CCCC3)c2C1=O" on Bcl-2-like protein 1 (Homo sapiens, UniProt Q07817), anyone have it? 5.70

# iterate: "CC1=C(C2=C(C)C(=O)c3c(cc(O)c(O)c3CC(C)C)C2=O)C(=O)c2cc(O)c(O)c(CC(C)C)c2C1=O" 6.43

Reference source for all entries: ChEMBL document CHEMBL1269007
